This collection of values is drawn from patent US7265152B2.

molecular target: HCV NS5B (Hepatitis C virus genotype 1b, UniProt Q9WMX2); construct: fusion protein, of which the carboxyl terminal 21 amino acids were removed to enhance its solubility; His tag (GSHHHHHH); made in house; host or cells: E. coli; test: Inhibition of viral RNA-dependent RNA polymerase (RdRp), in vitro biochemical assay; parameters: species or system HCV genotype 1b virus (BB7); conditions: purified His-tagged NS5B (BB7), carboxyl terminal 21 amino acids removed; read-out: HCV pol-BB7 IC50
Listed next: entries and their corresponding IC50.

Known IC50 results, listed for orientation:
Compound | IC50
CNC(=O)c1c(-c2ccco2)oc2ccc(OC)cc12 [Example 68] | 500 to 5000 nM
CNC(=O)c1c(-c2ccc(F)cc2)oc2cc(NS(C)(=O)=O)c(OC(C)C)cc12 [Example 21] | ≤ 500 nM
CCc1cc2c(C(=O)NC)c(-c3ccc(F)cc3)oc2cc1NS(C)(=O)=O [Example 44] | ≤ 500 nM

Input line: Query: IC50; subject: CNC(=O)c1c(-c2ccc(F)cc2)oc2ccc(OC(F)F)cc12 [Example 7]
Output line: 500 to 5000 nM

Input line: Query: IC50; subject: CNC(=O)c1c(-c2ccc(F)cc2)oc2cc(-c3cc(CO)on3)c(OC)cc12 [Example 40]
Output line: ≤ 500 nM

Input line: Query: IC50; subject: CNC(=O)c1c(-c2ccccc2)oc2ccc(C#N)cc12 [Example 26]
Output line: 5000 to 30000 nM

Input line: Query: IC50; subject: CCc1cc2c(C(=O)NC)c(-c3ccc(F)cc3)oc2cc1N(C)S(C)(=O)=O [Example 45]
Output line: ≤ 500 nM

Input line: Query: IC50; subject: CNC(=O)c1c(-c2ccc(F)cc2)oc2c(C)cc(OC(C)C)cc12 [Example 80]
Output line: 500 to 5000 nM

* * *

tested on: HCV replicon (BB7 sequence) in Huh-7-Clone A cells; assay: HCV replicon assay: ELISA of NS5A protein in replicon-containing cells (Inhibition of Viral RNA Replication); assay type: cell-based; settings: Hepatitis C virus; HCV replicon assay; ranges of EC50; read-out: Replicon
pEC50: −log10 of the molar value.
Listed next: entries and their corresponding pEC50.

Compound | pEC50
CNC(=O)c1c(-c2ccc(F)cc2)oc2cc(C3CCN(C(C)=O)C3)c(OC)cc12 (centres unmarked) | > 5.00

Input line: Query: pEC50; subject: CNC(=O)c1c(-c2ccc(F)cc2)oc2cc(N3CCOCC3)c(OCc3ccc(C(=O)O)cc3)cc12
Output line: > 5.00

Input line: Query: pEC50; subject: CNC(=O)c1c(-c2ccc(F)cc2)oc2cc(C(C)(C)O)c(C)cc12
Output line: > 5.00

Input line: Query: pEC50; subject: CNC(=O)c1c(-c2ccc(F)cc2)oc2cc(N(Cc3ccc(C(=O)OC)cc3)S(C)(=O)=O)c(OC(C)C)cc12
Output line: > 6.00

Input line: Query: pEC50; subject: CNC(=O)c1c(-c2ccc(F)cc2)oc2cc(NS(C)(=O)=O)c(F)cc12
Output line: > 5.00

Input line: Query: pEC50; subject: CCCOc1cc2c(C(=O)NC)c(-c3ccc(F)cc3)oc2cc1NS(C)(=O)=O
Output line: > 6.00

Input line: Query: pEC50; subject: CNC(=O)c1c(-c2ccc(F)cc2)oc2cc(-c3cc[nH]c3)c(OC)cc12
Output line: > 6.00

Input line: Query: pEC50; subject: CNC(=O)c1c(-c2ccc(F)cc2)oc2cc(N(Cc3ccccc3)S(C)(=O)=O)c(OC(C)C)cc12
Output line: > 6.00

* * *

tested on: HCV replicon (BB7 sequence) in Huh-7-Clone A cells; test: HCV replicon assay: ELISA of NS5A protein in replicon-containing cells (Inhibition of Viral RNA Replication); type: cell-based; settings: Hepatitis C virus; HCV replicon assay; ranges of EC50; read-out: Replicon
pEC50: −log10 of the molar value.
Endpoint name: pEC50

Compound | pEC50
CNC(=O)c1c(-c2ccc(F)cc2)oc2cc(N(C)S(C)(=O)=O)c(OCc3ccncc3)cc12 [Example 328] | > 6.00
CNC(=O)c1c(-c2ccc(F)cc2)oc2ccc(OCc3cccc(C(=O)O)c3)cc12 [Example 260] | < 4.52

Please turn your attention to the following entry.
Input line: Query: pEC50; subject: CNC(=O)c1c(-c2ccc(F)cc2)oc2cc(C3CCCN3)c(OC(C)C)cc12 (centres unmarked) [Example 265]
Output line: < 4.52

* * *

target: HCV NS5B (Hepatitis C virus genotype 1b, UniProt Q9WMX2); construct: fusion protein, of which the carboxyl terminal 21 amino acids were removed to enhance its solubility; His tag (GSHHHHHH); made in house; host or cells: E. coli; experiment: Inhibition of viral RNA-dependent RNA polymerase (RdRp), in vitro biochemical assay; design: species or system HCV genotype 1b virus (BB7); conditions: purified His-tagged NS5B (BB7), carboxyl terminal 21 amino acids removed; read-out: HCV pol-BB7 IC50
Endpoint name: IC50

Known IC50 results, listed for orientation:
Smiles record | IC50
CNC(=O)c1c(-c2cccc(C(F)(F)F)c2)oc2ccc(OC)cc12 | 500 to 5000 nM
CNC(=O)c1c(-c2ccc(F)cc2)oc2cc(N(Cc3cscn3)S(C)(=O)=O)c(OC(C)C)cc12 | ≤ 500 nM
CNC(=O)c1c(-c2ccccc2)oc2ccc(OCc3ccccc3-c3ccccc3)cc12 | 5000 to 30000 nM

Please turn your attention to the following entry.
Input line: Query: IC50; subject: CNC(=O)c1c(-c2cccs2)oc2ccc(OC)cc12
Output line: 500 to 5000 nM

* * *

biological target: HCV NS5B (Hepatitis C virus genotype 1b, UniProt Q9WMX2); construct: fusion protein, of which the carboxyl terminal 21 amino acids were removed to enhance its solubility; His tag (GSHHHHHH); made in house; host or cells: E. coli; assay: Inhibition of viral RNA-dependent RNA polymerase (RdRp), in vitro biochemical assay; parameters: species or system HCV genotype 1b virus (BB7); conditions: HCV NS5B polymerase, BB7 (genotype 1b); values given as range classes A-D; read-out: HCV pol-BB7 IC50
Listed next: entries and their corresponding IC50.

Known IC50 results, listed for orientation:
Compound | Endpoint name | Observed result
CNC(=O)c1c(-c2ccc(F)cc2)oc2cc(-c3c(C)noc3C)c(OCc3cscn3)cc12 [Example 401] | IC50 | ≤ 0.5 µM
CNC(=O)c1c(-c2ccc(F)cc2)oc2cc(N(C)S(C)(=O)=O)c(OCCn3cccn3)cc12 [Example 404] | IC50 | ≤ 0.5 µM
CNC(=O)c1c(-c2ccc(F)cc2)oc2cc(N(C)S(C)(=O)=O)c(OCc3nnc(N)[nH]3)cc12 [Example 402] | IC50 | ≤ 0.5 µM

Input line: Lookup: IC50 / HCV NS5B (Hepatitis C virus genotype 1b, UniProt Q9WMX2) / CNC(=O)c1c(-c2ccc(F)cc2)oc2cc(-c3c(C)noc3C)c(OCCCN3CCCCC3)cc12 [Example 434]
Output line: 0.5 to 5 µM

Input line: Lookup: IC50 / HCV NS5B (Hepatitis C virus genotype 1b, UniProt Q9WMX2) / CNC(=O)c1c(-c2ccc(F)cc2)oc2cc(N(C)S(C)(=O)=O)c(OCC(=O)OC(C)(C)C)cc12 [Example 382]
Output line: ≤ 0.5 µM

Input line: Lookup: IC50 / HCV NS5B (Hepatitis C virus genotype 1b, UniProt Q9WMX2) / CNC(=O)c1c(-c2ccc(F)cc2)oc2cc(-c3c(C)noc3C)c(OCc3nccs3)cc12 [Example 410]
Output line: ≤ 0.5 µM

Input line: Lookup: IC50 / HCV NS5B (Hepatitis C virus genotype 1b, UniProt Q9WMX2) / CNC(=O)c1c(-c2ccc(F)cc2)oc2cc(N(C)S(C)(=O)=O)c(OCC(=O)Nc3nccs3)cc12 [Example 415]
Output line: ≤ 0.5 µM

* * *

molecular target: HCV NS5B (Hepatitis C virus genotype 1b); construct: fusion protein, of which the carboxyl terminal 21 amino acids were removed to enhance its solubility; His tag (GSHHHHHH); made in house; host or cells: E. coli; assay: Inhibition of viral RNA-dependent RNA polymerase (RdRp), in vitro biochemical assay; set-up: species or system HCV genotype 1b virus (BB7); conditions: purified His-tagged NS5B (BB7), carboxyl terminal 21 amino acids removed; read-out: HCV pol-BB7 IC50
Endpoint name: IC50

Compound | IC50
CNC(=O)c1c(-c2ccc(F)cc2)oc2cc(-c3c(C)noc3C)c(OC)cc12 [Example 28] | ≤ 500 nM
CNC(=O)c1c(-c2ccc(F)cc2)oc2cc(N(Cc3ccc(OC)cc3)S(C)(=O)=O)c(OCc3ccc(OC)cc3)cc12 [Example 31] | ≤ 500 nM

Input line: Lookup: IC50 / HCV NS5B (Hepatitis C virus genotype 1b) / CNC(=O)c1c(-c2ccncc2)oc2ccc(OC(C)C)cc12 [Example 27]
Output line: 5000 to 30000 nM

Input line: Lookup: IC50 / HCV NS5B (Hepatitis C virus genotype 1b) / CNC(=O)c1c(-c2ccccc2)oc2ccc(OC)c(C)c12 [Example 25]
Output line: > 30000 nM

Input line: Lookup: IC50 / HCV NS5B (Hepatitis C virus genotype 1b) / CCOc1cc2c(C(=O)NC)c(-c3ccc(F)cc3)oc2cc1N(C)S(C)(=O)=O [Example 38]
Output line: ≤ 500 nM

Input line: Lookup: IC50 / HCV NS5B (Hepatitis C virus genotype 1b) / CNC(=O)c1c(-c2ccc(F)cc2)oc2cc(N(CCO)S(C)(=O)=O)c(C3CC3)cc12 [Example 43]
Output line: ≤ 500 nM

Input line: Lookup: IC50 / HCV NS5B (Hepatitis C virus genotype 1b) / CCOc1ccc2oc(-c3ccc(Cl)s3)c(C(=O)NC)c2c1 [Example 87]
Output line: ≤ 500 nM

Input line: Lookup: IC50 / HCV NS5B (Hepatitis C virus genotype 1b) / CNC(=O)c1c(-c2ccc(C)c(F)c2)oc2ccc(OC)cc12 [Example 69]
Output line: ≤ 500 nM
